# subject_of_test: UniProt:F5ANH9
measure_name: Kd (µM)
I only need the number, in µM, no unit after it.

INPUT: Kd lookup needed for c1ccc(Nc2cccc3ccccc23)cc1 , thanks.
OUTPUT: 1.79

----------
# subject_of_test: HarmPBP1 mutant F119A (Helicoverpa armigera, UniProt F5ANH9, F146A)
# Sequence (F5ANH9 entry or part of it F146A): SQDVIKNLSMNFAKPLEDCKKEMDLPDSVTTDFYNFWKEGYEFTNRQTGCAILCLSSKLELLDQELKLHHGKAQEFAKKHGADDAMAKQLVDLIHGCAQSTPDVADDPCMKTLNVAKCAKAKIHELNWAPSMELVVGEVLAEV
# test_protocol: Fluorescence binding assay (1-NPN probe), mutant F119A
measure_name: Kd
A complete answer gives the number followed by the unit.

INPUT: Which Kd value belongs to c1ccc(Nc2cccc3ccccc23)cc1 ?
OUTPUT: 1960 nM

----------
# subject_of_test: HarmPBP1 mutant Q64A (Helicoverpa armigera, UniProt F5ANH9, Q91A)
# Sequence (F5ANH9 entry or part of it Q91A): as the sequence (F5ANH9 entry or part of it F146A) above, with Q64A, A119F counted along it
# test_protocol: Fluorescence binding assay (1-NPN probe), control mutant Q64A
measure_name: pKi
The scale used: pKi is minus the common logarithm of the concentration in molar units.

>>> test_value("CCCCCC/C=C\\CCCCCCCC=O [Z9-16:Ald, (Z)-9-hexadecenal]")
6.24

// moving on: another record for pKi
INPUT: Entry under review: CCCC/C=C\CCCCCCCCCC=O [Z11-16:Ald, (Z)-11-hexadecenal] . Reported pKi?
OUTPUT: 6.11
